Values from ChEMBL document CHEMBL1275341

Tested on: Plasmodium falciparum
assay procedure: Antimalarial activity against chloroquine-resistant Plasmodium falciparum W2 infected in human A+ erythrocytes assessed as inhibition of [3H]hypoxanthine uptake after 48 hrs by scintillation counting
Type: functional, organism-based
readout type: pIC50
The value called pIC50 is obtained by taking minus log10 of the concentration in mol/L.

Prompt: Given the entry `Clc1ccc2c(NCCNCc3cccc4ccccc34)ccnc2c1` , report its measured pIC50.
Completion: 5.92

Prompt: Given the entry `Clc1ccc2c(NCCNCc3ccc4ccccc4c3)ccnc2c1` , report its measured pIC50.
Completion: 6.09

Prompt: Given the entry `Clc1ccc2c(NCCNCc3c4ccccc4cc4ccccc34)ccnc2c1` , report its measured pIC50.
Completion: 6.10
